Values from PubChem BioAssay (NCATS)

- assay_procedure: Drug repurposing screens with cells derived from glioblastoma tumor samples (AID 1345199); note: % is set by controls: 0 for no effect and ±100 for the full control effect
- details: GBM patient neurospheres viability, ATP luminescence, 48 h; at 45.9 µM (top of the series); tumour line D
Results filed as inconclusive are left out.
readout_name: activity, negative = cell killing (%)
The figure you give is taken to be in %; do not add the unit.

[O]=[Cr](=[O])([OH])[O][Cr](=[O])(=[O])[OH] | -3.21
CN[C@H]1C[C@@H](N)[C@H](O)[C@@H](O[C@@H]2O[C@H](CO)[C@H](O)[C@@H]3OC4(O[C@H]23)O[C@H](C(N)CO)[C@H](O)[C@H](O)[C@H]4O)[C@@H]1O (some centres undefined) | -24.2
N#CC1(N2CCCCC2)CCCCC1 | -14.5
CCN(CC)C(=O)/C(Cl)=C(\C)OP(=O)(OC)OC | -19.8
CCCC(C)(COC(N)=O)COC(=O)NC1CC1 (centres undefined) | -18
CCC(=O)O[C@]1(c2ccccc2)CCN(C)C[C@H]1C | -17.1
COCC(C)N(C(=O)CCl)c1c(C)csc1C (centres undefined) | -11.3
COc1cc2c(cc1OC)[C@@]13CCN4CC5=CCO[C@H]6CC(=O)N2[C@H]1[C@H]6[C@H]5C[C@H]43 | -3.06
CNc1ccc(C(=O)CC(O)CCC(C)C2OC(=O)CC(O)CC(=O)CC(O)CC(O)CC(O)CC(O)CC3(O)CC(O)C(C(=O)OC)C(CC(O[C@@H]4O[C@H](C)[C@@H](O)[C@H](N)[C@@H]4O)/C=C/C=C/C=C/C=C/C=C/C=C/C=C/C2C)O3)cc1 (some centres undefined) | 9.06
Clc1ccccc1Cl | -8.63

QUERY: Need activity, negative = cell killing, item O=C/C=C/c1ccccc1
RESULT: -9.63

QUERY: Also [S]=[Sb](=[S])[S][Sb](=[S])=[S] ?
RESULT: -5.67

QUERY: Also C=C[C@H]1CN2CC[C@H]1C[C@@H]2[C@@H](O)c1ccnc2ccccc12 ?
RESULT: -9.4

QUERY: Also CCN1C[C@]2(COC)[C@H](O)C[C@H](OC)[C@@]34[C@@H]5C[C@@]6(O)[C@H](OC(=O)c7ccccc7)[C@@H]5[C@@](OC(C)=O)([C@@H]([C@H](OC)[C@H]23)[C@@H]14)[C@@H](O)[C@@H]6OC ?
RESULT: -4.25
